Hey, just so you know, these numbers are from patent US9273084B2.

Tested on: S. aureus 25923
test-method-notes: MIC assay, 96 well broth dilution with MTT staining
Format: cell-based
Set-up: unit not given beside the values
stated-conditions: S. aureus 25923 (second strain line); BHI containing 0.1% casamino acids; 35-37° C., 20 h
Each entry below carries its reported MIC.

molecule | MIC
C=C(C/C=C(\C)CCC=C(C)C)CCC(C)(C)/C=C/CC/C(C)=C/CO[C@@H](COP(=O)(O)O[C@H]1O[C@H](C(N)=O)[C@@](C)(O)[C@H](OC(N)=O)[C@H]1O[C@@H]1O[C@H](CO[C@@H]2O[C@H](CO)[C@@H](O)[C@H](O)[C@H]2O)[C@@H](O[C@@H]2O[C@H](C)[C@@H](O[C@@H]3O[C@H](C(=O)NC4=C(O)CCC4=O)[C@H](O)[C@H](O)[C@H]3O)[C@H](O)[C@H]2NC(C)=O)[C@H](O)[C@H]1NC(C)=O)C(=O)O | 0.16
CCCCCCCCCCCCCCCCCCOC(COP(=O)(O)OC1OC(C(N)=O)C(C)(O)C(OC(N)=O)C1OC1OC(COC2OC(CO)C(O)C(O)C2O)C(OC2OC(C)C(OC3OC(C(=O)NC4=C(O)CCC4=O)C(O)C(O)C3O)C(O)C2NC(C)=O)C(O)C1NC(C)=O)C(=O)O.N (centres unmarked) | 0.98
CC(=O)NC1C(OC2C(COC3OC(CO)C(O)C(O)C3O)OC(OC3C(OP(=O)(O)OCC(OCCCCCCCCCCC(F)(F)C(F)(F)C(F)(F)C(F)(F)C(F)(F)C(F)(F)C(F)(F)C(F)(F)F)C(=O)O)OC(C(N)=O)C(C)(O)C3OC(N)=O)C(NC(C)=O)C2O)OC(C)C(OC2OC(C(=O)NC3=C(O)CCC3=O)C(O)C(O)C2O)C1O.N (centres unmarked) | 2.0
CC(=O)NC1C(OC2C(COC3OC(CO)C(O)C(O)C3O)OC(OC3C(OP(=O)(O)OCC(OCc4cccc(OCc5cccc(-c6cccc(OCc7cccc(-c8ccccc8)c7)c6)c5)c4)C(=O)O)OC(C(N)=O)C(C)(O)C3OC(N)=O)C(NC(C)=O)C2O)OC(C)C(OC2OC(C(=O)NC3=C(O)CCC3=O)C(O)C(O)C2O)C1O.N (centres unmarked) | 0.20
CC(=O)NC1C(OC2C(COC3OC(CO)C(O)C(O)C3O)OC(OC3C(OP(=O)(O)OCC(OCc4cccc(OCc5cccc(-c6cccc(OCc7ccccc7)c6)c5)c4)C(=O)O)OC(C(N)=O)C(C)(O)C3OC(N)=O)C(NC(C)=O)C2O)OC(C)C(OC2OC(C(=O)NC3=C(O)CCC3=O)C(O)C(O)C2O)C1O.N (centres unmarked) | 7.8
CC(=O)NC1C(OC2C(COC3OC(CO)C(O)C(O)C3O)OC(OC3C(OP(=O)(O)OCC(OCC=C(C)CCC=C(C)CCC=C(C)CCC=C(C)C)C(=O)O)OC(C(N)=O)C(C)(O)C3OC(N)=O)C(NC(C)=O)C2O)OC(C)C(OC2OC(C(=O)NC3=C(O)CCC3=O)C(O)C(O)C2O)C1O.N (centres unmarked) | 3.9

###

Test system: S. aureus 25923
test-method-notes: MIC assay, 96 well broth dilution with MTT staining
Format: cell-based
Parameters: unit not given beside the values
stated-conditions: S. aureus 25923 (second strain line); BHI containing 0.1% casamino acids; 35-37° C., 20 h
Each entry below carries its reported MIC.
observable: MIC

compound | test-value
CCCCCCCCCCCCCCCCCCCCOC(COP(=O)(O)OC1OC(C(N)=O)C(C)(O)C(OC(N)=O)C1OC1OC(COC2OC(CO)C(O)C(O)C2O)C(OC2OC(C)C(OC3OC(C(=O)NC4=C(O)CCC4=O)C(O)C(O)C3O)C(O)C2NC(C)=O)C(O)C1NC(C)=O)C(=O)O.N (centres unmarked) | 0.63
CCCCCCCCCCCCCCCCOC(COP(=O)(O)OC1OC(C(N)=O)C(C)(O)C(OC(N)=O)C1OC1OC(COC2OC(CO)C(O)C(O)C2O)C(OC2OC(C)C(OC3OC(C(=O)NC4=C(O)CCC4=O)C(O)C(O)C3O)C(O)C2NC(C)=O)C(O)C1NC(C)=O)C(=O)O.N (centres unmarked) | 16
